- system.tested: human M3 muscarinic receptor (Homo sapiens, UniProt P20309)
- Construct: expressed in transfected cells; host or cells: CHO-K1
- Sequence (P20309 whole entry): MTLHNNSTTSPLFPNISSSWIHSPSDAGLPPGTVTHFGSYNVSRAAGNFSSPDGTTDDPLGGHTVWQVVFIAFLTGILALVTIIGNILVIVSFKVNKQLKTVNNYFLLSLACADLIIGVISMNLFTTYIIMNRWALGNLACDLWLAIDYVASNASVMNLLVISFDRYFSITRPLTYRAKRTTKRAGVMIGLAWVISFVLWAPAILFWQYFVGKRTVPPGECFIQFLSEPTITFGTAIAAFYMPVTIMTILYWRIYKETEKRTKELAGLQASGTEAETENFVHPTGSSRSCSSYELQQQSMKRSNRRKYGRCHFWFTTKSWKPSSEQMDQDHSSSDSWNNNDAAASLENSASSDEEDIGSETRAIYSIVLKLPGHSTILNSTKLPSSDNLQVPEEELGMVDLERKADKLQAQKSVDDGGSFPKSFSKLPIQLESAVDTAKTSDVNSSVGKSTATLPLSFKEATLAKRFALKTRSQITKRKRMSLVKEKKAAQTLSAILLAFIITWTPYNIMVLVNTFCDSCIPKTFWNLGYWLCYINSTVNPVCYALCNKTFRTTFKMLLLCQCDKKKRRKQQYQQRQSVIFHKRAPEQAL
- experiment.notes: Inhibitory effect on methacholine-induced calcium influx, FLIPR assay, CHO-K1 cells stably expressing the human M3 muscarinic receptor
- Format: cell-based
- test.context: inhibition of calcium influx induced by methacholine
Structures can show the parent of a compound that is named as a salt.
The following compounds are listed with their measured pIC50 values.
Field pIC50 (float): negative decimal logarithm of the concentration in molar.

Some compounds with recorded pIC50:
* C[N+]1(C)CCC(OC(=O)Nc2cc(CCC(=O)Nc3ccc(CNC[C@H](O)c4ccc(O)c5[nH]c(=O)ccc45)c(Cl)c3)ccc2-c2ccccc2)CC1 [Example 3, trifluoroacetate] | 7.79
* C[N+]1(C)CCC(OC(=O)Nc2cc(CCCCC(=O)Nc3ccc(CNC[C@H](O)c4ccc(O)c5[nH]c(=O)ccc45)cc3)ccc2-c2ccccc2)CC1 [Example 49, trifluoroacetate] | 7.86
* COc1cc(CNC[C@H](O)c2ccc(O)c3[nH]c(=O)ccc23)ccc1NC(=O)CCc1ccc(-c2ccccc2)c(NC(=O)OC2CC[N+](C)(C)CC2)c1 [Example 10, trifluoroacetate] | 7.98

// map C[N+]1(C)[C@@H]2CC(OC(=O)Nc3cc(CCC(=O)Nc4ccc(CNC[C@H](O)c5ccc(O)c6[nH]c(=O)ccc56)cc4Cl)ccc3-c3ccccc3)C[C@H]1[C@@H]1O[C@@H]12 (some centres unmarked) [Example 44] to recorded pIC50 (system: human M3 muscarinic receptor (Homo sapiens, UniProt P20309)) 7.86

Field entry: C[N+]1(C)CCC(OC(=O)Nc2cc(CCC(=O)Nc3cc(F)c(CNC[C@H](O)c4ccc(O)c5[nH]c(=O)ccc45)cc3F)ccc2-c2ccccc2)CC1 [Example 5, trifluoroacetate] 7.72
